- targetUnderTest: recombinant human SOS1 polypeptide (amino acids 560-1049) (Homo sapiens (Human), UniProt Q07889)
- Sequence (Q07889 560-1049): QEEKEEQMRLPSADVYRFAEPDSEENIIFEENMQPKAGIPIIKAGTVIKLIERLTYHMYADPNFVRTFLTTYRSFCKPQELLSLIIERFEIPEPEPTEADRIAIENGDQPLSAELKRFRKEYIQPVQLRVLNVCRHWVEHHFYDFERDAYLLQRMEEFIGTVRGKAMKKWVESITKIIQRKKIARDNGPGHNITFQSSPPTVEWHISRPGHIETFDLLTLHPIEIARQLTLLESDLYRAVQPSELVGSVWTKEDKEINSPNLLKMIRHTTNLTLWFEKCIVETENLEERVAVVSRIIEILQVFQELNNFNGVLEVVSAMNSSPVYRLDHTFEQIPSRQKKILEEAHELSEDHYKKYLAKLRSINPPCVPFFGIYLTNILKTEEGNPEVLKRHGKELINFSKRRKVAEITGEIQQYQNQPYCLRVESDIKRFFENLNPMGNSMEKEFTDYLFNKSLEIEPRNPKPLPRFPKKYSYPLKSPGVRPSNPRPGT
- assayName: biochemical
- Format: binding
- experimentalSetup: HTRF displacement, Cy5 labelled tracer, Morrison equation for competitive binding; read-out: Ki, Inhibition of Labeled Tracer Binding to SOS1
pKi: −log10 of the molar value.
So basically: pKi at 9 or higher? That is Met. Lower than 9? That is Not met.

Take a look at these entries with their results.
[[record]]
moleculesmiles = "Cc1nnc(N[C@H](C)c2cccc(C#N)c2)c2cc(N3CCOCC3)ccc12"
grouplabel = "Not met"

[[record]]
moleculesmiles = "Cc1c([C@@H](C)Nc2nncc3ccc(N4CCn5c(cnc5C)C4)cc23)cccc1C(F)(F)F"
grouplabel = "Met"

[[record]]
moleculesmiles = "Cc1c(C#N)cccc1[C@@H](C)Nc1nnc(C)c2cnc(N3CC(C)(O)C3)cc12"
grouplabel = "Not met"


Query string: Has Cc1c([C@@H](C)Nc2nnc(C)c3cnc(N4C[C@H]5CC[C@@H]4CN5C)cc23)cccc1C(F)(F)F a recorded pKi greater than or equal to 9?
Result string: Met

Query string: Dear colleague, could you confirm whether Cc1c([C@@H](C)Nc2nnc(C)c3ccc(N4CCC5(CCCN5C)CC4)cc23)cccc1C(F)(F)F has pKi at or above 9?
Result string: Met

* * *

- targetUnderTest: recombinant human SOS1 polypeptide (amino acids 560-1049) (Homo sapiens (Human), UniProt Q07889)
- assayName: biochemical
- Format: binding
- experimentalSetup: HTRF displacement, Cy5 labelled tracer, Morrison equation for competitive binding; read-out: Ki, Inhibition of Labeled Tracer Binding to SOS1
Reported values of pKi for individual entries
Just the number, please; pKi means minus log10 of the concentration in mol/L.

[[record]]
compound = "Cc1nnc(N[C@H](C)c2cccc(C(F)(F)F)c2F)c2cc(N3CC(N(C)C)C3)ncc12 [Example 12-66]"
readouttype = "pKi"
valuereported = 8.68

[[record]]
compound = "Cc1nnc(N[C@H](C)c2cc(F)cc(C#N)c2F)c2cc(N3CC(C)(N(C)C)C3)ncc12 [Example 12-122]"
readouttype = "pKi"
valuereported = 6.77

[[record]]
compound = "Cc1c(C#N)cccc1[C@@H](C)Nc1nnc(C)c2ccc(N3C[C@H]4CC[C@@H]3CN4C)cc12 [Example 10-71]"
readouttype = "pKi"
valuereported = 9.41


Next:
Query string: // lookup pKi for Cc1c([C@@H](C)Nc2nnc(C)c3cnc(N4CC(C)(O)C4)cc23)cc(F)cc1C(F)(F)F [Example 12-111]
Result string: 8.09

* * *

- targetUnderTest: recombinant human SOS1 polypeptide (amino acids 560-1049) (Homo sapiens (Human), UniProt Q07889)
- assayName: biochemical
- Assay type: binding
- experimentalSetup: HTRF displacement, Cy5 labelled tracer, Morrison equation for competitive binding; read-out: Ki, Inhibition of Labeled Tracer Binding to SOS1
Ki under 2 nM gets true (1), anything at or over 2 nM gets false (0).

Known results for molecules:
[[record]]
molecule = "Cc1c([C@@H](C)Nc2nnc(C)c3cnc(N4CCS(=O)(=O)CC4)cc23)cccc1C(F)(F)F [Example 12-13]"
grouplabel = "true (1)"

[[record]]
molecule = "Cc1nnc(N[C@H](C)c2cccc(F)c2Cl)c2cc(N3CC4CC(C3)O4)ncc12 [Example 12-77]"
grouplabel = "false (0)"

[[record]]
molecule = "Cc1c([C@@H](C)Nc2nnc(C)c3ccc(O[C@H]4CCN(C)C4)cc23)cccc1C(F)(F)F [Example 7-5]"
grouplabel = "true (1)"


Query string: I'd appreciate it if you could check whether Cc1nnc(N[C@H](C)c2ccc(F)cc2F)c2cc(N3CCN4CCOC[C@@H]4C3)ncc12 [Example 12-48] has Ki smaller than 2 nM.
Result string: false (0)

Query string: # TODO verify Ki < 2 nM strictly for this molecule: Cc1c([C@@H](C)Nc2nnc(C)c3cnc(N4CC5(COC5)C4)cc23)cccc1C(F)(F)F [Example 12-3]
Result string: true (1)

Query string: Decide: Ki of Cc1c(C#N)cccc1[C@@H](C)Nc1nnc(C)c2cnc(N3CCN4CCCC[C@@H]4C3)cc12 [Example 12-86] strictly below 2 nM?
Result string: true (1)
